- system: human 5-HT1A receptor (Homo sapiens, UniProt P08908)
- Construct: purchased Packard Bioscience; host or cells: CHO cells (membrane preparation)
- Sequence (P08908 1-422): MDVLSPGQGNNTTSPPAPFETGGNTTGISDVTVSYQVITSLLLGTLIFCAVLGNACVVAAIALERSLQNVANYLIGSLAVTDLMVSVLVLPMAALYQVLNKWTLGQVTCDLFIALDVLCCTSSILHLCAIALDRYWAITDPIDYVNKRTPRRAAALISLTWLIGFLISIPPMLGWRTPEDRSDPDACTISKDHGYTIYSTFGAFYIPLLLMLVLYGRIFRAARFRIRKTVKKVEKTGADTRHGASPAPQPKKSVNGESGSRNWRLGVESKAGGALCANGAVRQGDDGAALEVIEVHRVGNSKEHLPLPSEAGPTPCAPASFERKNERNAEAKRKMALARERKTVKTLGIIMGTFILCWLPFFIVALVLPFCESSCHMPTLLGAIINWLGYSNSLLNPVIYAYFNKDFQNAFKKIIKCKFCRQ
- measurement.protocol: Affinity measurement of the compounds to human 5-HT1A receptor (in vitro), [3H]8-OH-DPAT binding
- experimental.setup: test compound 100 nmols/L; [3H]8-OH-DPAT 0.25 nmols/L; CHO cell membrane expressing human 5-HT1A receptor; read-out: Percent Inhibition (%) on Each Receptor's Binding at 10^−7M, 5-HT1A
- Protocol: (1) Affinity Measurement of the Compounds to Human 5-HT1A Receptor (in Vitro) […] Residual radioactivity on the filter was measured with liquid scintillation counter (Aloka Co., LSC-5100). Percent inhibition (%) of each test compound to binding of [^3H]8-OH-DPAT to 5-HT1A receptor at a concentration of 0.25 nmols/L, i.e., affinity of each test compound to 5-HT1A receptor, can be calculated according to the following expression. […]
Counter-ions that a name gives are not always drawn.
readout.name: inhibition at 0.1 µM (%)

>>> readout_number("Cn1c(CCCCN2CCN(c3ccc4ccccc4n3)CC2)nc2ccc(Cl)cc2c1=O")
97.5
>>> readout_number("CN1CCN(c2nc(Cl)cc3ccccc23)CC1 [Production Example 16, dihydrochloride]")
61.1
>>> readout_number("Cc1cc(N2CCN(CCCSc3nc4sc5c(c4c(=O)[nH]3)CCNC5)CC2)nc2ccccc12 [Example 2-20, trihydrochloride]")
81.6
>>> readout_number("Cc1sc2nc(CCCCN3CCN(c4ccc5ccccc5n4)CC3)[nH]c(=O)c2c1C")
77
>>> readout_number("c1cc2sccc2c(N2CCN3CCC[C@@H]3C2)n1")
75.4
>>> readout_number("O=c1c2c(nc(CCCCN3CCN(c4nc5ccccc5s4)CC3)n1Cc1ccccc1)CCCC2")
45
>>> readout_number("CC1CCc2c(sc3nc(SCCCN4CCN(c5ccc6ccccc6n5)CC4)n(N)c(=O)c23)C1 (centres unmarked)")
97.9
>>> readout_number("Cn1c(CCCCN2CCN(c3ccc4ccccc4n3)CC2)nc2ccccc2c1=O")
101

Reference source for all entries: patent US7799775B2
